TARGET OR TEST SYSTEM: Flap endonuclease 1 (Homo sapiens) (UniProt P39748)
Sequence (P39748 whole entry, looked up): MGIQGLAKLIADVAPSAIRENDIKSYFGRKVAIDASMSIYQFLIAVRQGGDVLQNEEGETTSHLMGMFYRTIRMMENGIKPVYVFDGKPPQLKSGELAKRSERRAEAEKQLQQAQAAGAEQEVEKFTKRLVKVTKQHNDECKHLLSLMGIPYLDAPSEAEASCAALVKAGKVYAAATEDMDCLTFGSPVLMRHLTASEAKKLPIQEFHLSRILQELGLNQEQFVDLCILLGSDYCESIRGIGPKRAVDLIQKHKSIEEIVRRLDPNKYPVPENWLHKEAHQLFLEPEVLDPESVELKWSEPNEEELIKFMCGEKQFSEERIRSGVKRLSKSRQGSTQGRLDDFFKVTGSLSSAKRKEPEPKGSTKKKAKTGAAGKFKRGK
PROTOCOL NOTES: qHTS Validation Assay for the Inhibitors of Human Flap endonuclease 1 (FEN1) (AID 488816)
EXPERIMENTAL CONDITIONS: FEN1 nuclease activity, fluorogenic DNA substrate; series mostly up to 57.1 µM
Active and inactive are the calls of the source. Calls come from the whole dose curve; as a rule, active = well fitted inhibition curve with a large enough effect; inconclusive = small, poorly fitted or top-dose-only effect; inactive = flat fitted curve, though single readings scatter.
// allowed return values: active, inactive

COc1ccc2c(c1)c(CC(=O)O)c(C)n2Cc1ccc(Cl)cc1	inactive
O=C(O)/C(=C/c1c(C(=O)O)[nH]c2cc(Cl)cc(Cl)c12)c1ccccc1	inactive
c1ccc2c(c1)CCC[C@H]2Nc1nc2ccccc2[nH]1	inactive

Query: Recorded test outcome, item NC(=Nc1ccccc1)NC(=O)c1nc(Cl)c(N)nc1N
Reply: inactive

Query: // outcome(item) with item = O=C(O)CCC/C=C\C[C@@H]1[C@@H](/C=C/[C@H](O)C2Cc3ccccc3C2)[C@@H](F)C[C@@H]1O
Reply: inactive

Query: Please share the test call associated with Nc1ncnc2c1ncn2C1CCCC1 .
Reply: inactive

Query: Called result for CC(N)(Cc1ccc(O)cc1)C(=O)O (stereo unspecified)
Reply: inactive

Query: Give the logged outcome of this assay for the following compound: O=S(=O)(c1cccc2c(Cl)cccc12)N1CCCNCC1
Reply: inactive

Query: Fill in: this test's call for CCCCOc1cc(CC2CNC(=O)N2)ccc1OC (stereo unspecified) is ___
Reply: inactive

Query: // return assay outcome for O=C1OC(=O)C2C3CCC(O3)C12 (stereo unspecified)
Reply: inactive

Query: Would you mind telling me which call this test gave COc1cc(CC(=O)O)ccc1O ?
Reply: inactive

Query: Which outcome was entered for the compound OC[C@H]1O[C@@H](n2cnc3cncnc32)[C@H](O)[C@@H]1O in this test?
Reply: inactive

Query: Fill in: this test's call for COc1ccc(C(=O)NCc2cccnc2)cc1C(=O)NCc1cccnc1 is ___
Reply: inactive

Query: Given NC(C(=O)N[C@@H]1C(=O)N2C(C(=O)O)=C(Cl)CS[C@H]12)c1ccccc1 (stereo partly specified) , state the outcome it received in this test.
Reply: inactive

Query: Record lookup: outcome of this test for Nc1ccc(-c2nc3ccc(-c4nc5ccc(N)cc5[nH]4)cc3[nH]2)cc1 ?
Reply: active

Query: For NCC(O)C1CCCCCCC1 (stereo unspecified) , what call appears in the results of this test?
Reply: inactive

Query: Call for entry [N-]=[N+]=Nc1ccc(C(=O)CSC[C@H](NC(=O)CC[C@H](N)C(=O)O)C(=O)NCC(=O)O)cc1 :
Reply: inactive

Query: Hi team, can someone confirm the assay call for CN(C)CCC(c1ccc(Br)cc1)c1ccccn1 (stereo unspecified) ?
Reply: inactive

Query: Outcome? CC(=O)C(C)=O
Reply: inactive

Query: // outcome(item) with item = C=CCN1CCc2cc(O)c(O)cc2C(c2ccccc2)C1 (stereo unspecified)
Reply: inactive
